assay: PK Study of Compounds in Mice; type: in vivo, Female ICR mice; settings: female, ICR, mouse, whole blood, PO 10 mg/kg (n=3), mean
observed_property: AUC(0-t) (ng·h/mL)
Reply numerically in ng·h/mL, unit not repeated.

Input: Which AUC(0-t) reading was recorded for the compound CC1OCCCn2c(c3c4cc(ccc42)-c2csc(n2)CC(NC(=O)C2C(C)C2C)C(=O)N2NC(C(=O)OCC(C)(C)C3)C3CC2C3)-c2cc(N3CCN(C)CC3)cnc21 (centres unmarked) [Example 186] ?
Output: 10100

Input: Which AUC(0-t) reading was recorded for the compound CC1OCCCn2c(c3c4cc(ccc42)-c2csc(n2)CC(NC(=O)C2C(C)C2C)C(=O)N2NC(C(=O)OCC(C)(C)C3)C3CC2C3)-c2cc(N3CCN(C4COC4)CC3)cnc21 (centres unmarked) [Example 198] ?
Output: 13200
